Numbers sourced from ChEMBL document CHEMBL3046301.

Tested on: Bacillus subtilis
Assay Details: Genotoxicity in recombination-deficient Bacillus subtilis M45 assessed as growth inhibition
Assay type: toxicity, organism-based
Test Context: in vivo
Flag rule - MIC less than 500 µg/mL flags y; the remaining entries get n.

Molecule: Nc1ccc2oc(-c3ccc(Br)cc3)nc2c1
Category Label: n
--
Molecule: Nc1ccc(-c2nc3cc(Cl)ccc3o2)cc1
Category Label: n
--
Molecule: Cc1ccc2[nH]c(Cc3ccc(Br)cc3)nc2c1
Category Label: y
--
Molecule: Clc1ccc2oc(Cc3ccc(Br)cc3)nc2c1
Category Label: n
--
Molecule: Cc1ccc2nc(COc3ccccc3)oc2c1
Category Label: n
--
Molecule: Cc1ccc2nc(-c3ccccc3Cl)oc2c1
Category Label: y
--
Molecule: O=[N+]([O-])c1cc[n+]([O-])c2ccccc12 [4-NITROQUINOLINE-1-OXIDE]
Category Label: y
